Hey, just so you know, these numbers are from PubChem BioAssay AID743267.

Test system: human bronchial epithelial cells, CFTR corrector, plate reader
testMethodNotes: rescue of ΔF508 CFTR function, airway epithelium – human bronchial epithelial cells, plate reader, cherry-pick, two tests, dose response (AID 743267)
experimentalParameters: measured here: test 2 replicate run
# class assignment by measured AC50: LOW (below 1000 nM), MID (1000 nM to below 10000 nM), HIGH (10000 nM or more)

Lab note: sort NS(=O)(=O)c1cc(C2(O)NC(=O)c3ccccc32)ccc1Cl (stereo unspecified) into the matching AC50 band.
HIGH

Which class holds "COC(=O)c1ccccc1-c1c2ccc(=N)cc-2oc2cc(N)ccc12" ?
LOW
